Hello, the source for this data is patent US20250215072A1, in case you need it.

biological target: T1, human GARP-proTGFβ1 complex (human, UniProt P01137 30-390; Q14392 20-627); assay: BLI (Octet)
T1 construct: also called hGARP-proTGFβ1; hGARP
T1 sequence (P01137 30-390, chain 1 of 2): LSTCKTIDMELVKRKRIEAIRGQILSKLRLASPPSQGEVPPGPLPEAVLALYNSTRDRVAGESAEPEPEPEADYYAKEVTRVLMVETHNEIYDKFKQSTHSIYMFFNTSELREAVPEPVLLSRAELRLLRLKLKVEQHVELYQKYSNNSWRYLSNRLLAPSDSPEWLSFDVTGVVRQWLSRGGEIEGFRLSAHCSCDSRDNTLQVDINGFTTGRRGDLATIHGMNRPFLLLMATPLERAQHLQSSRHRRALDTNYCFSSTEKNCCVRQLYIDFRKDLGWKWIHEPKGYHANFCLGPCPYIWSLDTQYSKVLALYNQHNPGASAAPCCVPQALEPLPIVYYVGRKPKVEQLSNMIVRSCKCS
T1 sequence (Q14392 20-627, chain 2 of 2): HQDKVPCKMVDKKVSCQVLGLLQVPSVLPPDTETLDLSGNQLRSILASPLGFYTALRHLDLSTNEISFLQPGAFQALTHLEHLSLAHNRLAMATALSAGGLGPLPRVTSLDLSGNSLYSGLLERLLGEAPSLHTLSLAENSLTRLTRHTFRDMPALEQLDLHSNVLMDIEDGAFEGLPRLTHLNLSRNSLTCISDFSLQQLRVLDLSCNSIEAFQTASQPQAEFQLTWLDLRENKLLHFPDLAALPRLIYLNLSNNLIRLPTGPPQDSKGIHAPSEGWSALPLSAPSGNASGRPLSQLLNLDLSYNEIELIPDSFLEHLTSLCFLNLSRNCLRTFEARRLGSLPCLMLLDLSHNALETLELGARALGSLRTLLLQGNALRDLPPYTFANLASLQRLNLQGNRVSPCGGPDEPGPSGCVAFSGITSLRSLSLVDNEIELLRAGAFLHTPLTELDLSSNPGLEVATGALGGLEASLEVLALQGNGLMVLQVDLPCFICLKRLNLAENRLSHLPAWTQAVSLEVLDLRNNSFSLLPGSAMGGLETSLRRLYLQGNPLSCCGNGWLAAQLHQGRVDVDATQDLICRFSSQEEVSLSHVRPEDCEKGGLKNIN
Quantity kind: pKd
For clarity, pKd is expressed as the negative log10 of concentration in mol/L.

Ask | So what does the record say about pKd for Ab26 (antibody, IgG4, V domains shown) VH: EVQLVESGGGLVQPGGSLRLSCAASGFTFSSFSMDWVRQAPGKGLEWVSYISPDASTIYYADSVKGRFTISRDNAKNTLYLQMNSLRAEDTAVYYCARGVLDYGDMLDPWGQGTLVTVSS VL: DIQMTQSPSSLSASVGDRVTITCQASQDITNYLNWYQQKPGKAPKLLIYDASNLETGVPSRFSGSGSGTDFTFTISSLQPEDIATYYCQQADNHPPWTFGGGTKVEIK ?
Reply | 9.20
